B1: Cytoplasmic polyadenylation element-binding protein 2, residues 513 to 575; numbered along this chain, Q7Z5Q1 (parent)
chain: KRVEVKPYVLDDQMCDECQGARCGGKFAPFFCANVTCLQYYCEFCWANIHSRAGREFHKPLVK

- Variants of: B1
- EXPERIMENT_NOTES: abundance fitness (aPCA) (normalised: wild type 0, dead -1); higher = more abundant; growth selection in yeast, the domain comes from the species named
- CONDITIONS_USED: Homo sapiens
Each entry gets label 0 if its abundance fitness stays under -0.04, and label 1 if its abundance fitness is -0.04 or above.

Given F27V , state whether its abundance fitness is at least -0.04.
label 1

// inclusive: abundance fitness at least -0.04? input: C42M
label 0

API: above_or_equal(metric=abundance fitness, cutoff=-0.04) for item C15Y
label 0

Reported abundance fitness reaches at least -0.04 for A53Y ?
label 0

Decide: is the reported value of abundance fitness for R22V equal to or greater than -0.04?
label 0

Is reported abundance fitness greater than or equal to -0.04 here: Y41H
label 0

Does the reported abundance fitness for V5A fall at or above the -0.04 mark?
label 0

Could you tell me if the measured abundance fitness of Q13V reaches -0.04 or more?
label 0

Reported abundance fitness at or above -0.04? S51Q
label 1

hey, is abundance fitness for this one >= -0.04? K26R
label 1

Answer whether abundance fitness of V3L is greater than or equal to -0.04.
label 0

Evaluate M14K : abundance fitness at minimum -0.04?
label 1

Quick check, abundance fitness >= -0.04? K1R
label 0

hey, is abundance fitness for this one >= -0.04? C37I
label 0

Could you please find out whether A33P has abundance fitness that meets -0.04 or exceeds it?
label 0

Identify whether the reported abundance fitness of the following variant is -0.04 or greater: E56D
label 1

Threshold query (abundance fitness >= -0.04) on G54P
label 1

Answer whether abundance fitness of V35G is greater than or equal to -0.04.
label 1

Textbook exercise: given the entry F44V , state whether its abundance fitness is greater than or equal to -0.04.
label 1

Decide: is the reported value of abundance fitness for K26Y equal to or greater than -0.04?
label 0

Is abundance fitness at least -0.04? Consider K26E
label 0

// inclusive: abundance fitness at least -0.04? input: Q19Y
label 0

Does the variant V9D have recorded abundance fitness that is -0.04 or more?
label 1

Does the variant Q19G have recorded abundance fitness that is -0.04 or more?
label 1

Does the reported abundance fitness for D12M fall at or above the -0.04 mark?
label 0

# check: abundance fitness of V5C is greater than or equal to -0.04
label 0

Quick check, abundance fitness >= -0.04? Q13N
label 0

Would you say R22L shows abundance fitness at minimum -0.04?
label 0

Check this variant for abundance fitness at or above -0.04: C23S
label 0

Is it the case that P60M has abundance fitness reaching or exceeding -0.04?
label 0

Please tell me: is the variant L10G at or over -0.04 in terms of abundance fitness?
label 1

Quick check, abundance fitness >= -0.04? F31S
label 0

Form field: abundance fitness at least -0.04? Entry: R22H
label 1

hey, is abundance fitness for this one >= -0.04? A21E
label 1

Is the recorded value of abundance fitness equal to or greater than -0.04 for this variant? L38C
label 1

# bool: abundance fitness of A47Y >= -0.04
label 0

Does abundance fitness meet or surpass -0.04 for L10H ?
label 0

Has R22M a recorded abundance fitness greater than or equal to -0.04?
label 1
